FYI, the data here is from patent US8524750B2.

# System: Mycobacterium tuberculosis H37Rv
# ASSAY COMMENT: Mycobacterium tuberculosis H37Rv Inhibition Assay (Whole Cell Assay)
# Format: cell-based
# ASSAY CONTEXT: ATCC 25618 / H37Rv, H37Rv strain (ATCC25618), Middlebrook 7H9, six days at 37° C., resazurin fluorescence after 48 hours
PROPERTY NAME: MIC

The cases that follow already have their MIC on record.
In [3]: df
Out[3]:
                                   compound                 target_under_test    measured
0  Cc1cc(C)n(Cc2cnc(Nc3ccn(Cc4c(F)cccc4Cl)n3)s2)n1  Mycobacterium tuberculosis H37Rv  4 to 10 µM
1  Cc1cc(C)n(C(C)c2nnc(Nc3ccn(Cc4cc(F)ccc4C(F)(F)F)n3)s2)n1 (centres unmarked)  Mycobacterium tuberculosis H37Rv     > 10 µM
2  Cc1csc(C(C)c2nnc(Nc3ccn(Cc4c(F)cccc4Cl)n3)s2)n1 (centres unmarked)  Mycobacterium tuberculosis H37Rv   1 to 4 µM
3  Cc1ccn(C(C)c2nnc(Nc3ccn(Cc4cccc(F)c4F)n3)s2)n1 (centres unmarked)  Mycobacterium tuberculosis H37Rv   1 to 4 µM
4  Cc1cc(C)n(C(C)c2nnc(Nc3ccn(Cc4c(F)ccc(C)c4F)n3)s2)n1 (centres unmarked)  Mycobacterium tuberculosis H37Rv      ≤ 1 µM
5  Cc1ccn(Cc2nnc(Nc3ccn(Cc4c(Cl)cccc4Cl)n3)s2)n1  Mycobacterium tuberculosis H37Rv     > 10 µM

Value sought for every listed compound: MIC.
1. Cc1cc(C)n(C(C)c2nnc(Nc3ccn(Cc4cccc(Cl)c4F)n3)s2)n1 (centres unmarked)
2. CCOC(=O)Nc1cccc(Cn2ccc(Nc3nnc(C(C)(O)c4nc(C)cs4)s3)n2)c1F (centres unmarked) [Intermediate 121]
3. Cc1cc(C)n(C(C)c2nnc(Nc3ccn(Cc4ccc(F)cc4Cl)n3)s2)n1 (centres unmarked)
4. Cc1csc(C(C)c2nnc(Nc3ccn(Cc4cccc(F)c4F)n3)s2)n1 (centres unmarked)
5. Cc1ccn(Cc2nnc(Nc3ccn(Cc4ccccc4)n3)s2)n1

# output
≤ 1 µM
1 to 4 µM
> 10 µM
1 to 4 µM
> 10 µM
